Target: recombinant human HDAC6 (Homo sapiens, UniProt Q9UBN7)
Sequence (Q9UBN7 1-1215): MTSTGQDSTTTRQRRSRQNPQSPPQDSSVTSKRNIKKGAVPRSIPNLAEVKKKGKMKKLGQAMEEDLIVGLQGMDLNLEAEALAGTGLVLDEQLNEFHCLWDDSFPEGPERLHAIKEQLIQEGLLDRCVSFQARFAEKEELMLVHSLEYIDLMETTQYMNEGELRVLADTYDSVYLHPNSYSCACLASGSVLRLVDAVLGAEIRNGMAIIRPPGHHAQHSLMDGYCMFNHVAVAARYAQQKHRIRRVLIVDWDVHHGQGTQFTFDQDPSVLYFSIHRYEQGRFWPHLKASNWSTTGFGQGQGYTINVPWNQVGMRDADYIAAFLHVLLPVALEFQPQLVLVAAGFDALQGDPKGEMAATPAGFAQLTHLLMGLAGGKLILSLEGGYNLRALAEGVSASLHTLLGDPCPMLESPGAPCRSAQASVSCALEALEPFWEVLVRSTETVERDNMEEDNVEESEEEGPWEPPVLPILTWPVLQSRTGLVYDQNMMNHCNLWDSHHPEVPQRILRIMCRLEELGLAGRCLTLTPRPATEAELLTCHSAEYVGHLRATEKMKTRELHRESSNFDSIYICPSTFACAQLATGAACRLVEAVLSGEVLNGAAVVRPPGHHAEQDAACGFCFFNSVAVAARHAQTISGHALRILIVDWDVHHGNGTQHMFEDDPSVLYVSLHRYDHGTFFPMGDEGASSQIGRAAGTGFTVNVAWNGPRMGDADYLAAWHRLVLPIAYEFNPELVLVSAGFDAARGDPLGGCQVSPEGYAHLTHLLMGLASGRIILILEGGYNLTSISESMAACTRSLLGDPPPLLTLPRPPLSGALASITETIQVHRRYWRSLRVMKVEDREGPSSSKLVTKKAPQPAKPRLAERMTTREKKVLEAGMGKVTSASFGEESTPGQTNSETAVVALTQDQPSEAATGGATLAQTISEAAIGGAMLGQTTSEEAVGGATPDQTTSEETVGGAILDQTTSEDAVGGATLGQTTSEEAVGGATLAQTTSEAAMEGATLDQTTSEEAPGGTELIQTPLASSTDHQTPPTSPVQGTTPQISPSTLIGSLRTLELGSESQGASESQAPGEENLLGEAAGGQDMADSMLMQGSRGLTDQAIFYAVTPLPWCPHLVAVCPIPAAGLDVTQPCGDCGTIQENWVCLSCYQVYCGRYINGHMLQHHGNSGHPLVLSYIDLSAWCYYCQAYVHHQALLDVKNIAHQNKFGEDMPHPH
Assay: Enzymatic screening on recombinant human HDAC6
Format: biochemical
Details: Table 2; read-out: HDAC6 IC50
pIC50: −log10 of the molar value.
Criterion: pIC50 meeting or surpassing 8. Met: 1. Not met: 0.

Cn1c(Sc2ccc(C(=O)NO)cc2)nnc1-c1ccc2c(c1)OCO2 ... 0
Cn1c(Sc2c(F)cc(C(=O)NO)cc2F)nnc1-c1ccc(CN2CCCCC2)cc1 ... 1
O=C(NO)c1ccc(Cn2nnc(-c3ccc4ccccc4n3)n2)cc1 ... 0
O=C(NO)c1ccc(Cn2nnnc2-c2nccc3ccccc23)cc1 ... 1
Cn1c(Sc2c(F)cc(C(=O)NO)cc2F)nnc1-c1cccnc1 ... 0
COc1ccc(CCC(=O)N[C@@H](Cc2cscn2)c2nc(Cc3ccc(C(=O)NO)cc3)no2)cc1OC ... 0
O=C(NO)c1ccc(Cc2nc(-c3ccc(Cl)cc3)nn2Cc2ccccc2)cc1 ... 0
O=C(NO)c1cc(F)c(Cn2nnnc2-c2ccccn2)c(F)c1 ... 1
CCc1oc(-c2nnc(Sc3c(F)cc(C(=O)NO)cc3F)n2C)cc1CN1CCCC1 ... 1
Cn1c(Sc2c(F)cc(C(=O)NO)cc2F)nnc1C(C)(C)c1cccnc1 ... 0
Cn1c(Sc2c(F)cc(C(=O)NO)cc2F)nnc1C(c1ccccc1)c1ccccc1 ... 0
O=C(NO)c1cc(F)c(Sc2nnc(-c3cccs3)n2Cc2ccccc2)c(F)c1 ... 0
O=C(NO)c1ccc(Cn2nnnc2Cc2ccccc2)cc1 ... 0
